Test: Half life in ICR mouse at 10 mg/kg, po measured upto 1440 mins by LC/MS/MS analysis
Format: ADME, organism-based
Conditions: in vivo
We begin with a simple list: items and their reported half-life.
Test Readout: half-life

INSERT INTO assay_data (compound_structure_string, test_readout, test_result) VALUES
  ('CCOc1cc2ncnc(Nc3ccc(Oc4cc5nncn5cn4)c(C)c3)c2cc1NC(=O)/C=C/[C@H]1CCCN1C', 'half-life', '3.07 h'),
  ('CCOc1cc2ncnc(Nc3ccc(Oc4cc5nncn5cn4)c(C)c3)c2cc1NC(=O)/C(F)=C/[C@H]1CCCN1C', 'half-life', '3.6 h'),
  ('CCOc1cc2ncnc(Nc3ccc(Oc4cc5nncn5cn4)c(C)c3)c2cc1NC(=O)/C(F)=C\[C@@H]1CCCN1C', 'half-life', '0.87 h');

---

Test system: COLO-678
Assay: Antiproliferative activity against human COLO-678 cells assessed as cell growth inhibition incubated for 72 hrs by Celltiter-Glo assay
Type: functional, cell-based
Conditions: COLO-678, 72 h
pIC50: −log10 of the molar value.
We begin with a simple list: items and their reported pIC50.
Test Readout: pIC50

INSERT INTO results (compound_structure_string, test_result) VALUES
  ('CCOc1cc2ncc(C#N)c(Nc3ccc(OCc4ccccn4)c(Cl)c3)c2cc1NC(=O)/C=C/[C@H]1CCCN1C', 5.74),
  ('CCOc1cc2ncc(C#N)c(Nc3ccc(OCc4ccccn4)c(Cl)c3)c2cc1NC(=O)/C=C/CN(C)C', 6.16),
  ('CCOc1cc2ncnc(Nc3ccc(Oc4cc5nncn5cn4)c(C)c3)c2cc1NC(=O)/C(F)=C/[C@H]1CCCN1C', 5.22);

---

Experiment: Oral bioavailability in ICR mouse at 10 mg/kg measured upto 1440 mins by LC/MS/MS analysis
Format: ADME, organism-based
Settings: in vivo
Test Readout: bioavailability (%)

INSERT INTO measurements (compound_structure_string, test_result) VALUES
  ('CCOc1cc2ncnc(Nc3ccc(Oc4cc5nncn5cn4)c(C)c3)c2cc1NC(=O)/C(F)=C/[C@H]1CCCN1C', 87.7),
  ('CCOc1cc2ncnc(Nc3ccc(Oc4cc5nncn5cn4)c(C)c3)c2cc1NC(=O)/C(F)=C\[C@@H]1CCCN1C', 34.4),
  ('CCOc1cc2ncnc(Nc3ccc(Oc4cc5nncn5cn4)c(C)c3)c2cc1NC(=O)/C=C/[C@H]1CCCN1C', 22.6);

---

We begin with a simple list: items and their reported IC50.
Molecular target: Receptor tyrosine-protein kinase erbB-2 (Homo sapiens, UniProt P04626, D769H)
Sequence (P04626 23-1255 D769H limits assumed): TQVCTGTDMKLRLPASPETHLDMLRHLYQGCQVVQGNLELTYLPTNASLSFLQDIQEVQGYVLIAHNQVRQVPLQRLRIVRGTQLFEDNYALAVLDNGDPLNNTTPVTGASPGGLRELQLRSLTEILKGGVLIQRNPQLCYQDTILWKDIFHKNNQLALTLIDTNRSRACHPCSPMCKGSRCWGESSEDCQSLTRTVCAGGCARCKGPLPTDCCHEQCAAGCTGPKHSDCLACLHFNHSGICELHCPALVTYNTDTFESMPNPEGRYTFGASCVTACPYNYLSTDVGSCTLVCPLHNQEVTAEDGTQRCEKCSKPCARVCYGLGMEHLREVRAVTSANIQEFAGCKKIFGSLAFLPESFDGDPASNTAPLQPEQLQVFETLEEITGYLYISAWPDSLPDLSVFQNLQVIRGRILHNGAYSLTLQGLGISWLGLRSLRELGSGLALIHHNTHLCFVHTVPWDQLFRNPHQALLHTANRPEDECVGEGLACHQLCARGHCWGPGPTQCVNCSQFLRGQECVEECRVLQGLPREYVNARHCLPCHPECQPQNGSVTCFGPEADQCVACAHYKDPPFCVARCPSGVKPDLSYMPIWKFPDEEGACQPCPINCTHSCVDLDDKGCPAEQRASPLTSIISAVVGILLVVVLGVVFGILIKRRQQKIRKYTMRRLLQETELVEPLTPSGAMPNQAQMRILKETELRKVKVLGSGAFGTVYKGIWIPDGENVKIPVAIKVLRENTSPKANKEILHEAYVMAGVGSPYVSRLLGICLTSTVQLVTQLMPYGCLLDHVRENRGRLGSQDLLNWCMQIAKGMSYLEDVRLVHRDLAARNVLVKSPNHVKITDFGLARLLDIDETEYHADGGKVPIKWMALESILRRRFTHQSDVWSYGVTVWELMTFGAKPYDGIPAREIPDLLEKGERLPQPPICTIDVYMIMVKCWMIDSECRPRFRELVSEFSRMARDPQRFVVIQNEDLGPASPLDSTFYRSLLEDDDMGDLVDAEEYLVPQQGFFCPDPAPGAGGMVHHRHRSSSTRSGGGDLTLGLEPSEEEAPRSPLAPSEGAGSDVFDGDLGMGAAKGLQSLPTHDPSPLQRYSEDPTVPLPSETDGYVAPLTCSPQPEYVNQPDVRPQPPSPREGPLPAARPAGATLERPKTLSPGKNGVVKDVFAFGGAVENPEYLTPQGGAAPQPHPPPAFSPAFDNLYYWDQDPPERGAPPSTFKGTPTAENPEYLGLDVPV
Experiment: Inhibition of HER2 D769H mutant (unknown origin) incubated for 120 mins in presence of 33P-ATP by P81 ion exchange cellulose chromatography
Test Readout: IC50 (nM)

INSERT INTO results (compound_structure_string, test_readout, test_result) VALUES
  ('CCOc1cc2ncnc(Nc3ccc(Oc4cc5nncn5cn4)c(C)c3)c2cc1NC(=O)/C(F)=C/[C@H]1CCCN1C', 'IC50', 0.42),
  ('CCOc1cc2ncc(C#N)c(Nc3ccc(OCc4ccccn4)c(Cl)c3)c2cc1NC(=O)/C=C/[C@H]1CCCN1C', 'IC50', 6.65);

---

Test: Oral bioavailability in cynomolgus monkey at 15 mg/kg measured upto 1440 mins by LC/MS/MS analysis
Assay type: ADME, organism-based, Macaca fascicularis
Conditions: in vivo
Test Readout: bioavailability (%)

INSERT INTO assay_data (compound_structure_string, units_text, test_result) VALUES
  ('CCOc1cc2ncnc(Nc3ccc(Oc4cc5nncn5cn4)c(C)c3)c2cc1NC(=O)/C(F)=C/[C@H]1CCCN1C', '%', 43.4);

---

Assay: Half life in cynomolgus monkey at 1 mg/kg, iv measured upto 1440 mins by LC/MS/MS analysis
Type: ADME, organism-based, Macaca fascicularis
Settings: in vivo
Test Readout: half-life (h)

INSERT INTO measurements (compound_structure_string, test_result) VALUES
  ('CCOc1cc2ncnc(Nc3ccc(Oc4cc5nncn5cn4)c(C)c3)c2cc1NC(=O)/C(F)=C/[C@H]1CCCN1C', 7.46);

---

System: NUGC-4
Assay: Antiproliferative activity against human NUGC-4 cells assessed as cell growth inhibition incubated for 72 hrs by Celltiter-Glo assay
Type: functional, cell-based
Details: NUGC-4, 72 h
pIC50: −log10 of the molar value.
Test Readout: pIC50

INSERT INTO assay_data (compound_structure_string, test_result) VALUES
  ('CCOc1cc2ncc(C#N)c(Nc3ccc(OCc4ccccn4)c(Cl)c3)c2cc1NC(=O)/C=C/CN(C)C', 7.42),
  ('CCOc1cc2ncnc(Nc3ccc(Oc4cc5nncn5cn4)c(C)c3)c2cc1NC(=O)/C(F)=C/[C@H]1CCCN1C', 5.91),
  ('CCOc1cc2ncc(C#N)c(Nc3ccc(OCc4ccccn4)c(Cl)c3)c2cc1NC(=O)/C=C/[C@H]1CCCN1C', 7.22);

---

Experiment: Clearance in cynomolgus monkey at 1 mg/kg, iv measured upto 1440 mins by LC/MS/MS analysis
Format: ADME, organism-based, Macaca fascicularis
Details: in vivo
Test Readout: clearance (mL/min/kg)

INSERT INTO results (compound_structure_string, units_text, test_result) VALUES
  ('CCOc1cc2ncnc(Nc3ccc(Oc4cc5nncn5cn4)c(C)c3)c2cc1NC(=O)/C(F)=C/[C@H]1CCCN1C', 'mL/min/kg', 10.2);

---

We begin with a simple list: items and their reported log10 IC50.
Molecular target: UniProtKB P00533
Sequence (P00533 whole entry, the tested form may be a part): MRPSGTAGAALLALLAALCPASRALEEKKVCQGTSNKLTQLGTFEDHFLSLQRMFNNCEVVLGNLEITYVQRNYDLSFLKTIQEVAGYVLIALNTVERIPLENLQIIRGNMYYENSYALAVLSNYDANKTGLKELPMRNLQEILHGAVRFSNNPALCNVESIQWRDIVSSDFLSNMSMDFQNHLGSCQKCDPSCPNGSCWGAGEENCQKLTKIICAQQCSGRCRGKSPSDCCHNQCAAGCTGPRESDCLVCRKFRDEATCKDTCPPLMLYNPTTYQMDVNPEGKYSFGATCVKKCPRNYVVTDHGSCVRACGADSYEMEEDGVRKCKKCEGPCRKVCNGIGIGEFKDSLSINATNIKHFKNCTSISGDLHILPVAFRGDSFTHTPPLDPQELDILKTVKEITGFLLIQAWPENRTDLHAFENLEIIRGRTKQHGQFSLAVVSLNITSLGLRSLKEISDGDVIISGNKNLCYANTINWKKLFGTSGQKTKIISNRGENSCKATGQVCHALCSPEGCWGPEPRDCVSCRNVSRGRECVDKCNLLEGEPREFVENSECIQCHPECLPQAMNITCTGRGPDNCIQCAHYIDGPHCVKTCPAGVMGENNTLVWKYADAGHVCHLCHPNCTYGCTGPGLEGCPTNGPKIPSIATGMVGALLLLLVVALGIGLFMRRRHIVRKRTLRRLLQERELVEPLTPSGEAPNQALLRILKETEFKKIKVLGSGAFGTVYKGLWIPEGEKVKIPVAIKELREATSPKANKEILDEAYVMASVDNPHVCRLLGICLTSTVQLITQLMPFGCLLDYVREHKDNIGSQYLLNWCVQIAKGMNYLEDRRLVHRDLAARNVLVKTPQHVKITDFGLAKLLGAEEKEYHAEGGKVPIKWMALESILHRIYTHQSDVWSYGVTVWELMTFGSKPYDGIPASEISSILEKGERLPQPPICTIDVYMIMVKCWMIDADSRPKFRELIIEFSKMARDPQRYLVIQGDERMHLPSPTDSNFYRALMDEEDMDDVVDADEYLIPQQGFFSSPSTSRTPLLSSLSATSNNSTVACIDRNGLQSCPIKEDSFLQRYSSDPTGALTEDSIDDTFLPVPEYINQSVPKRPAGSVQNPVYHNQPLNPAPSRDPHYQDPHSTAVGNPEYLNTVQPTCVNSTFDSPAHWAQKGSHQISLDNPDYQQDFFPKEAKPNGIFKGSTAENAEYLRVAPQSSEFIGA
Assay: Inhibition of wild type human N-terminal GST tagged EGFR (669 to 1210 residues) expressed in Sf21 insect cells incubated for 30 mins in presence of ATP by HTRF analysis
Test Readout: log10 IC50 (log10 of the value in µM)

INSERT INTO assay_data (compound_structure_string, test_result) VALUES
  ('CCOc1cc2ncnc(Nc3ccc(Oc4cc5nncn5cn4)c(C)c3)c2cc1NC(=O)/C(F)=C/[C@H]1CCCN1C', -2.09),
  ('CCOc1cc2ncnc(Nc3ccc(Oc4cc5nncn5cn4)c(C)c3)c2cc1NC(=O)/C(F)=C\[C@H]1CCCN1C', -1.06),
  ('C=C(F)C(=O)Nc1cc2c(Nc3ccc(Oc4cc5nncn5cn4)c(C)c3)ncnc2cc1OCC', -2.02),
  ('CCOc1cc2ncnc(Nc3ccc(Oc4cc5nncn5cn4)c(C)c3)c2cc1NC(=O)/C=C/[C@H]1CCCN1C', -2.87),
  ('COCC(=O)NC/C=C/c1ccc2ncnc(Nc3ccc(Oc4cc5nncn5cn4)c(C)c3)c2c1', -0.96),
  ('Cc1cc(Nc2c(C#N)cnc3ccc(NC(=O)/C=C/[C@H]4CCCN4C)cc23)ccc1Oc1cc2nncn2cn1', -2.50),
  ('CCOc1cc2ncnc(Nc3ccc(Oc4cc5nncn5cn4)c(C)c3)c2cc1NC(=O)/C(F)=C\[C@@H]1CCCN1C', -1.59),
  ('Cc1cc(Nc2c(C#N)cnc3ccc(NC(=O)/C=C/CN(C)C)cc23)ccc1Oc1cc2nncn2cn1', -1.68);

---

Biological target: Receptor tyrosine-protein kinase erbB-2 (Homo sapiens, UniProt P04626)
Sequence (P04626 whole entry): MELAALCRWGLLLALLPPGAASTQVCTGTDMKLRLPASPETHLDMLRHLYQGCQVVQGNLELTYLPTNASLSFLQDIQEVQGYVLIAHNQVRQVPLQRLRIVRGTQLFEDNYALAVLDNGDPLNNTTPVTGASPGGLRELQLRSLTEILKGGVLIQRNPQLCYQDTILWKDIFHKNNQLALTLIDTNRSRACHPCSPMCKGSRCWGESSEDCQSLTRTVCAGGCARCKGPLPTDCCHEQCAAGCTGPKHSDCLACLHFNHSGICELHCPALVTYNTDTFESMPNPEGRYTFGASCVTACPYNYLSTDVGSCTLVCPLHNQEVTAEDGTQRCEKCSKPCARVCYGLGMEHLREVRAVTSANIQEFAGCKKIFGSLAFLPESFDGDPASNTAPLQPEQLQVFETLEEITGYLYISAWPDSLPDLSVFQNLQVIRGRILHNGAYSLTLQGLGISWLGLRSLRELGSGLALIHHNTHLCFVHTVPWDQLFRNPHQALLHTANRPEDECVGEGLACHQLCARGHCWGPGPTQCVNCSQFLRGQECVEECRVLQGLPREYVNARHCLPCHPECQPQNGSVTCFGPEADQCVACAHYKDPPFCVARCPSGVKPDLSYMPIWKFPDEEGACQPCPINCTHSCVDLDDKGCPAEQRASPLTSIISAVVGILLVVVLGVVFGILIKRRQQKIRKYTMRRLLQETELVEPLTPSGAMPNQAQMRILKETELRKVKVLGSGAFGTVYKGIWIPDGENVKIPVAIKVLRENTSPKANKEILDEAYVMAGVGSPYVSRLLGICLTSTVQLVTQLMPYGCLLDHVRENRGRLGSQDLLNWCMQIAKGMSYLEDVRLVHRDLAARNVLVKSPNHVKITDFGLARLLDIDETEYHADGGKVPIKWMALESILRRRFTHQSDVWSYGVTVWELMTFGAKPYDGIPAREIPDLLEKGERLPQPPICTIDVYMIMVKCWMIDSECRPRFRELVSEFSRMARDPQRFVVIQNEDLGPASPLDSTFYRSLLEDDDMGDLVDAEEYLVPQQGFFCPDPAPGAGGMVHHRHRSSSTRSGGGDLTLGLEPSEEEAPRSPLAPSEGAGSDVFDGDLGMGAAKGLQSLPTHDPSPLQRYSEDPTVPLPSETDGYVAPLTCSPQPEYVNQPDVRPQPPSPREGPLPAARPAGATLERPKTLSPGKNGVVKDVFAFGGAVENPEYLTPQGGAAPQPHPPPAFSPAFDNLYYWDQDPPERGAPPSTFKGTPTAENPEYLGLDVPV
Test: Inhibition of wild type human GST-tagged HER2 (676 to end residues) expressed in baculovirus infected Sf9 cells incubated for 30 mins in presence of ATP by HTRF analysis
We begin with a simple list: items and their reported log10(IC50).
Test Readout: log10(IC50) (log10 of the value in nM)

INSERT INTO assay_data (compound_structure_string, test_result) VALUES
  ('CCOc1cc2ncnc(Nc3ccc(Oc4cc5nncn5cn4)c(C)c3)c2cc1NC(=O)/C(F)=C/[C@H]1CCCN1C', 0.55),
  ('CCOc1cc2ncc(C#N)c(Nc3ccc(OCc4ccccn4)c(Cl)c3)c2cc1NC(=O)/C=C/[C@H]1CCCN1C', 0.96),
  ('Cc1cc(Nc2ncnc3cc(O)c(NC(=O)/C=C/[C@H]4CCCN4C)cc23)ccc1Oc1ccn2ccnc2c1', 0.23),
  ('Cc1cc(Nc2ncnc3cc(O)c(NC(=O)/C=C/[C@H]4CCCN4C)cc23)ccc1Oc1ccn2cnnc2c1', 0.80),
  ('Cc1cc(Nc2c(C#N)cnc3ccc(NC(=O)/C=C/[C@H]4CCCN4C)cc23)ccc1Oc1cc2nncn2cn1', 1.03),
  ('Cc1cc(Nc2ncnc3cc(O)c(NC(=O)/C=C/[C@H]4CCCN4C)cc23)ccc1Oc1cc2nccn2cn1', 0.03),
  ('C=CC(=O)Nc1cc2c(Nc3ccc(Oc4cc5nncn5cn4)c(C)c3)ncnc2cc1OCC', 0.29),
  ('C=C(F)C(=O)Nc1cc2c(Nc3ccc(Oc4cc5nncn5cn4)c(C)c3)ncnc2cc1OCC', 0.61);

---

Assay: Metabolic stability in human liver microsomes assessed as half life at 1 uM preincubated for 5 mins followed by NADPH addition by LC-MS/MS analysis
Type: ADME, Microsome
Test Readout: log10 of half-life at 1 µM (log10 of the value in h)

INSERT INTO measurements (compound_structure_string, test_result) VALUES
  ('CCOc1cc2ncnc(Nc3ccc(Oc4cc5nncn5cn4)c(C)c3)c2cc1NC(=O)/C(F)=C/[C@H]1CCCN1C', 0.97),
  ('CCOc1cc2ncnc(Nc3ccc(Oc4cc5nncn5cn4)c(C)c3)c2cc1NC(=O)/C(F)=C/[C@@H]1CCCN1C', 0.14),
  ('C=C(F)C(=O)Nc1cc2c(Nc3ccc(Oc4cc5nncn5cn4)c(C)c3)ncnc2cc1OCC', -0.24),
  ('CCOc1cc2ncnc(Nc3ccc(Oc4cc5nncn5cn4)c(C)c3)c2cc1NC(=O)/C=C/[C@H]1CCCN1C', 1.11),
  ('CCOc1cc2ncnc(Nc3ccc(Oc4cc5nncn5cn4)c(C)c3)c2cc1NC(=O)/C(F)=C\[C@H]1CCCN1C', -0.02);
